Ki by entry:
Molecular target: CB2 receptor (Homo sapiens)
Construct: expressed in transfected cells; host or cells: CHO cells, G418-selected transfected line
Test: CB2 binding procedure: displacement of [3H]CP-55,940 from membranes of transfected CHO cells
Details: means ± SEM; [3H]CP-55,940, transfected CHO cell membranes; read-out: Ki (nM) CB2
MEASUREMENT NAME: Ki

CCCCCCC(C)(C)c1cc(OC)c(C2(O)CCCC(C)(C)C2)c(OC)c1 (centres unmarked) : 161 nM
CCCCCCC(C)(C)c1ccc(-c2cc(C)ccc2C(C)C)c(O)c1 : 3 nM
CCCCCCC(C)(C)c1cc(OC)c(C2(O)CCCC(C)C2)c(OC)c1 (single isomer, unassigned; isomer 2) [O-1967B] : 111 nM
CCCCCCC(C)(C)c1cc(O)c([C@H]2CCCC(C)C2)c(O)c1 (single isomer, unassigned) : 0.8 nM
CCCCCCC(C)(C)c1cc(OC)c(C2(O)CCC(O)CC2)c(OC)c1 (single isomer, unassigned) [O-2117B] : 1560 nM
CCCCCCC(C)(C)c1cc(O)c(C2CCSC2)c(O)c1 (centres unmarked) : 28 nM
CCCCCCC(C)(C)c1cc(O)c(C2CCN(C)CC2)c(O)c1 : 5420 nM
CCCCCCC(C)(C)c1cc(O)c(C2C3CC4CC(C3)CC2C4)c(O)c1 (centres unmarked) : 3 nM

---

Target: CB2 receptor (Homo sapiens)
Construct: expressed in transfected cells; host or cells: CHO cells, G418-selected transfected line
Test: CB2 binding procedure: displacement of [3H]CP-55,940 from membranes of transfected CHO cells
Settings: CB1 Ki divided by CB2 Ki
MEASUREMENT NAME: CB1/CB2 (ratio of Ki)

CCCCCCC(C)(C)c1cc(O)c(C2CCCC(C)C2)c(O)c1 (single isomer, unassigned) [O-1798B] : 8
CCCCCCC(C)(C)c1cc(OC)c(C2(O)CCC3(CC2)OCCO3)c(OC)c1 [O-2092] : 36
CCCCCCC(C)(C)c1ccc(-c2cc(C)ccc2C(C)C)c(O)c1 [O-1376] : 11
CCCCCCC(C)(C)c1cc(OC)c(C2(O)CCCCC2)c(OC)c1 [O-2072] : 55
CCCC(C)(C)c1ccc(-c2cc(C)ccc2C(C)C)c(O)c1 [O-1532] : 8
CCCCCCC(C)(C)c1cc(O)c(C2CCCCC2)c(O)c1 [O-1422] : 7
CCCCCCC(C)(C)c1cc(OC)c(C2(O)CCCC(C)C2)c(OC)c1 (single isomer, unassigned; isomer 2) [O-1967B] : 15
CCCCCCC(C)(C)c1cc(O)c(C2CCC(C)CC2)c(O)c1 (stereo not drawn) [O-1659] : 9
CCCCCCC(C)(C)c1cc(O)c(C2C3CC4CC(C3)CC2C4)c(O)c1 (stereo not drawn) [O-1660] : 2
CCCCCCC(C)(C)c1cc(OC)c(C2(O)CCC(O)CC2)c(OC)c1 (single isomer, unassigned) [O-2116A] : 21
CCCCCCC(C)(C)c1ccc(-c2cc(CO)ccc2C(C)C)c(O)c1 [O-1601] : 2
CCCC(C)(C)c1cc(O)c(C2CCCC(C)C2)c(O)c1 (stereo not drawn) [O-1890] : 7
CCCCCCC(C)(C)c1cc(O)c(C2CCCC(C)C2)c(O)c1 (mixture of isomers) [O-1657] : 17
CCCCCCC(C)(C)c1cc(OC)c(C2(O)CC(C)CC(O)C2)c(OC)c1 (stereo not drawn) [O-2121] : 20
CCCCCCC(C)(C)c1cc(O)c(C2=CCCCC2)c(O)c1 [O-1423] : 3
CCCCCCC(C)(C)c1cc(O)c(C2CCSC2)c(O)c1 (stereo not drawn) [O-1661] : 5
CCCCCCC(C)(C)c1cc(O)c(C2CCC(c3ccccc3)CC2)c(O)c1 (stereo not drawn) [O-1663] : 16
CCCCCCC(C)(C)c1cc(O)c(C2CCCC(C)C2)c(O)c1 (single isomer, unassigned) [O-1797A] : 12

---

Biological target: CB2 receptor (Homo sapiens, UniProt P34972)
Construct: expressed in transfected cells; host or cells: CHO cells, G418-selected transfected line
Sequence (P34972 whole entry): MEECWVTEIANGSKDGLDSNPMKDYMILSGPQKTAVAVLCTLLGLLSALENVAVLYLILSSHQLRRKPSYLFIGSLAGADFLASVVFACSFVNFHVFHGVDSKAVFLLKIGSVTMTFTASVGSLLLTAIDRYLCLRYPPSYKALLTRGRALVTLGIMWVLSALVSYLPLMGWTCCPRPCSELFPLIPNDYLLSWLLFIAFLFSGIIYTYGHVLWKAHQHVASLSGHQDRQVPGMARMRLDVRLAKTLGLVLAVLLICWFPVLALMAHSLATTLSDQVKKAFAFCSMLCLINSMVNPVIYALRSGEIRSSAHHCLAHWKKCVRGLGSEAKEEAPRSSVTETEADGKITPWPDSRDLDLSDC
Experiment: CB2 binding procedure: displacement of [3H]CP-55,940 from membranes of transfected CHO cells
Conditions: relative to the comparator analog
MEASUREMENT NAME: fold decrease in CB2 affinity

CCCCCCC(C)(C)c1cc(O)c(C2CCC(c3ccccc3)CC2)c(O)c1 (centres unmarked) : 2 fold
CCCCCCC(C)(C)c1cc(O)c(C2CCSCC2)c(O)c1 : 8 fold
CCCCCCC(C)(C)c1cc(OC)c(C2CCOCC2)c(OC)c1 : ~2 fold
CCCCCCC(C)(C)c1cc(OC)c(C2CCCC(C)C2)c(OC)c1 (centres unmarked) : ~600 fold

---

Target: CB2 receptor (Homo sapiens)
Construct: expressed in transfected cells; host or cells: CHO cells, G418-selected transfected line
Test: CB2 binding procedure: displacement of [3H]CP-55,940 from membranes of transfected CHO cells
Conditions: CB1 Ki divided by CB2 Ki
MEASUREMENT NAME: CB1/CB2 (ratio of Ki)

CCCCCCC(C)(C)c1cc(OC)c(C2(O)CCCC(C)C2)c(OC)c1 (single isomer, unassigned; isomer 1) [O-1966A] : 220
CCCCCCC(C)(C)c1cc(O)c(C2CCSCC2)c(O)c1 [O-1425] : 13
CCCCCCC(C)(C)c1cc(OC)c(C2(O)CCCCCC2)c(OC)c1 [O-2091] : 50
CCCCCCC(C)(C)c1cc(OCC)c(C2(O)CCCC(C)C2)c(OCC)c1 (stereo not shown) [O-2090] : 10

---

Ki by entry:
Target: CB1 receptor (Rattus norvegicus)
Sequence (P20272 whole entry): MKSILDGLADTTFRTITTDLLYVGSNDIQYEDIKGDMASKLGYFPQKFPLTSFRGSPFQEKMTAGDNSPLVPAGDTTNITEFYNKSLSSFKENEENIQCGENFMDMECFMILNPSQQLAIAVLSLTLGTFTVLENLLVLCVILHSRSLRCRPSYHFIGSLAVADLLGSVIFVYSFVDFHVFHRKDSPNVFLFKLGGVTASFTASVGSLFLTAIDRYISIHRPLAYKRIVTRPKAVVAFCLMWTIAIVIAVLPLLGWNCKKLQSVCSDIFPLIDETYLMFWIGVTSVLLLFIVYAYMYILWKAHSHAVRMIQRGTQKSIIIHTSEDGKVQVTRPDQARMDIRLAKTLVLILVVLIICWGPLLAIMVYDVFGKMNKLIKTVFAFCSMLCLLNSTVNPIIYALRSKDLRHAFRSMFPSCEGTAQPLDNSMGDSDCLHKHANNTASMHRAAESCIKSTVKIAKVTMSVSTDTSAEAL
Assay: CB1 binding procedure: displacement of [3H]CP 55,940 from rat whole-brain P2 membranes
Parameters: whole brain was homogenized and centrifuged; from tissue; host or cells: rat whole brain, P2 membrane fraction
Details: means ± SEM; [3H]CP 55,940, rat brain membranes; read-out: Ki (nM) CB1
Experimental: Male ICR mice (25–32 g), obtained from Harlan (Dublin, Va.), were housed in groups of five. All animals were kept in a temperature-controlled (20–22° C.) environment with a 12-hour light-dark cycle (lights on at 7 a.m.). […] Following decapitation and rapid removal of the brain, whole brain was homogenized and centrifuged. […] Prior to performing a binding assay an aliquot of frozen membrane was rapidly thawed and protein values determined by the method of Bradford (1976). […]
MEASUREMENT NAME: Ki

COc1cc(C)cc(OC)c1C1(O)CCCC(C)(C)C1 (centres unmarked) : > 10000 nM
CCCCCCC(C)(C)c1ccc(-c2cc(C)ccc2C(C)C)c(O)c1 : 33 nM
CCCCCCc1ccc(O)c(C2CCCCC2)c1O : 9510 nM
CCCCCCC(C)(C)c1cc(OC)c(C2(O)CCCC(C)C2)c(OC)c1 (single isomer, unassigned; isomer 2) [O-1967B] : 1720 nM
CCCCCCC(C)(C)c1cc(OC)c(C2(O)CC(C)CC(O)C2)c(OC)c1 (centres unmarked) : 1990 nM
CCCC(C)(C)c1cc(O)c(C2CCCC(C)C2)c(O)c1 (centres unmarked) : 96 nM
CCCCCCC(C)(C)c1cc(O)c(C2CCSCC2)c(O)c1 : 153 nM
CCCCCCC(C)(C)c1cc(OC)c(C2(O)CCC(O)CC2)c(OC)c1 (single isomer, unassigned) [O-2116A] : 3930 nM
CCCCCCC(C)(C)c1cc(OC)c(C2(O)CCC3(CC2)OCCO3)c(OC)c1 : 4580 nM
CCCCCCC(C)(C)c1cc(OCC)c(C2(O)CCCC(C)C2)c(OCC)c1 (centres unmarked) : 8810 nM
CCCCCCC(C)(C)c1ccc(-c2cc(CO)ccc2C(C)C)c(O)c1 : 5 nM

---

log10(Ki) by entry:
Target: CB2 receptor (Homo sapiens)
Construct: expressed in transfected cells; host or cells: CHO cells, G418-selected transfected line
Assay: CB2 binding procedure: displacement of [3H]CP-55,940 from membranes of transfected CHO cells
Details: means ± SEM; [3H]CP-55,940, transfected CHO cell membranes; read-out: Ki (nM) CB2
Procedure: Membranes for CB2 binding were obtained from CHO cells. […] Protein concentrations were determined by the method of Bradford (1976) using Bio-Rad Protein Assay (Bio-Rad, Richmond, Calif.) and BSA standards (fatty acid free, Sigma Chemical Co., St. Louis, Mo.). […]
MEASUREMENT NAME: log10(Ki) (log10 of the value in nM)

CCCCCCC(C)(C)c1cc(O)c(C2CCCC(C)C2)c(O)c1 (mixture of isomers) [O-1657] : -0.10
CCCCCCC(C)(C)c1cc(O)c(C2CCCCC2)c(O)c1 [O-1422] : 0.18
CCCC(C)(C)c1ccc(-c2cc(C)ccc2C(C)C)c(O)c1 [O-1532] : 2.05
CCCCCCC(C)(C)c1ccc(-c2cc(CO)ccc2C(C)C)c(O)c1 [O-1601] : 0.48
CCCCCCC(C)(C)c1cc(OC)c(C2(O)CCCCC2)c(OC)c1 [O-2072] : 2.02
CCCCCCC(C)(C)c1cc(OC)c(C2=CCC(=O)CC2)c(OC)c1 [O-2114] : 3.25
